Listed here are molecules together with their documented logP.
Experiment: logP determination by HPLC on a reversed-phase column (C 18), EEC Directive 79/831 Annex V.A8
Assay type: physicochemical
Details: method marked [b] in Table 1
metricName: logP

molecule: CC1=NOC(CO/N=C(\C)c2cc(C)cc(C)n2)(CO/N=C(\C)c2cc(C)cc(C)n2)C1 [Compound 637]
obsValue: 1.60^[b]

molecule: CC(=NOCCCON=C(C)c1ccc(C)c(C)n1)c1cccc(C)n1 [Compound 699]
obsValue: 2.53^[b]

molecule: CC(=NOCc1ccccc1CON=C(C)c1nc(C)c(C)s1)c1nc(C)c(C)s1 [compound 730]
obsValue: 5.71^[b]

molecule: CC(=NOCCC(C)CCON=C(C)c1ccccn1)c1ccccn1 (centres unmarked) [compound 747]
obsValue: 4.43^[b]

molecule: CC(=NOCC(C)(C)CON=C(C)c1ccc(C)c(C)n1)c1cc(C)cc(C)n1 [Compound 697]
obsValue: 3.15^[b]

molecule: CC(C)=CC1=NOC(CO/N=C(\C)c2cccc(C)n2)(CO/N=C(\C)c2cccc(C)n2)C1 [compound 604]
obsValue: 3.70^[b]

molecule: CC(=NOCC1(CON=C(C)c2ccc(C)c(C)n2)CC(C(C)C)=NO1)c1ccc(C)c(C)n1 (centres unmarked) [compound 627]
obsValue: 3.06^[b]

molecule: N/C(=N\OC/C=C/CO/N=C(\N)c1nc(C2CC2)cc(C2CC2)n1)c1nc(C2CC2)cc(C2CC2)n1 [compound 722]
obsValue: 3.13^[b]

* * *

Test: logP determination by HPLC on a reversed-phase column (C 18), EEC Directive 79/831 Annex V.A8
Format: physicochemical
Settings: [a] acidic range, pH 2.3, 0.1% aqueous phosphoric acid and acetonitrile

compound: C/C(=N\OCC(C)CON)c1ccc(C)c(C)n1 (racemic)
logP: 0.37^[a]
--
compound: C/C(=N\OCC(C)CON)c1cccc(C)n1 (racemic)
logP: 0.7^[a]
--
compound: C/C(=N\OCCCON)c1cccc(C)n1
logP: 0.27^[a]
--
compound: C/C(=N\OCC1(CON)CC1)c1cc(C)cc(C)n1
logP: 0.61^[a]
--
compound: C/C(=N\OCC(C)(C)CON)c1cc(C(F)(F)F)cc(C)n1
logP: 2.69^[a]
--
compound: C/C(=N\OCC(C)(C)CON)c1ccc(C)c(C)n1
logP: 0.98^[a]
--
compound: C/C(=N\OCC(C)(C)CON)c1cc(C)cc(C)n1
logP: 0.8^[a]
--
compound: Cc1cccc(C(=NOCCCON)C(C)C)n1 [XII-1]
logP: 1.12^[a]
--
compound: C/C(=N\OCC1(CON)CC1)c1cccc(C)n1
logP: 0.78^[a]
--
compound: Cc1cccc(C(=NOCCCON)C(C)C)n1 [XII-2]
logP: 1.05^[a]
--
compound: C/C(=N\OCC(C)CON)c1cc(C(F)(F)F)cc(C)n1 (racemic)
logP: 2.33^[a]
--
compound: C/C(=N\OCCCCON)c1ccc(C)c(C)n1
logP: 0.51^[a]
--
compound: C/C(=N\OCC(C)CON)c1cc(C)cc(C)n1 (racemic)
logP: 0.49^[a]

* * *

Test: logP determination by HPLC on a reversed-phase column (C 18), EEC Directive 79/831 Annex V.A8
Type: physicochemical
Details: value marked [c]
Listed here are compounds together with their documented logP.
metricName: logP

compound: COc1ccc(C(C)=NOCC(C)CON=C(C)c2ccc(OC)c(C)n2)nc1C (stereo not shown)
metricName: logP
obsValue: 5.58^[c]
--
compound: CCC(CC)(CON=C(C)c1nc(C)ccc1C)CON=C(C)c1nc(C)ccc1C [compound 812]
metricName: logP
obsValue: 6.66^[c]
--
compound: CC(=NOCC1(CON=C(C)c2ccc(C)c(C)n2)CCC1)c1ccc(C)c(C)n1
metricName: logP
obsValue: 7.05^[c]
--
compound: CCC(=NOCC(C)(C)CON=C(CC)c1cccc(C)n1)c1cccc(C)n1
metricName: logP
obsValue: 7.36^[c]
--
compound: CCOC(=O)C(C)(CON=C(C)c1nc(C)ccc1C)CON=C(C)c1nc(C)ccc1C (stereo not shown) [compound 860]
metricName: logP
obsValue: 4.72^[c]
--
compound: CC(=NOC[Si](C)(CON=C(C)c1cc(C)cc(C)n1)C(C)C)c1cc(C)cc(C)n1
metricName: logP
obsValue: 7.36^[c]
--
compound: CC(=NOCC1(CON=C(C)c2ccc(C)c(C)n2)CC1)c1ccc(C)c(C)n1
metricName: logP
obsValue: 6.08^[c]
--
compound: CC(=NOC[Si](C)(CON=C(C)c1ccc(C)c(C)n1)C(C)C)c1ccc(C)c(C)n1
metricName: logP
obsValue: 7.36^[c]
--
compound: CC(=NOCC(C)(C)CON=C(C)c1cc(C2CC2)cc(C)n1)c1cc(C2CC2)cc(C)n1
metricName: logP
obsValue: 7.14^[c]
--
compound: CC(=NOCC1(CON=C(C)c2cccc(C)n2)COC(=O)N1)c1cccc(C)n1 (stereo not shown)
metricName: logP
obsValue: 2.97^[c]
--
compound: CC(=NOCC(C)CON=C(C)c1cc(Cl)cc(C)n1)c1cc(C)cc(C)n1 (racemic)
metricName: logP
obsValue: 7.32^[c]
--
compound: CC(=NOCC1(CON=C(C)c2nc(C)ccc2C)CCC1)c1nc(C)ccc1C (single isomer, unassigned)
metricName: logP
obsValue: 5.84^[c]
--
compound: CC(=NOCC1(CON=C(C)c2nc(C)ccc2C)CC1)c1nc(C)ccc1C (single isomer, unassigned) [compound 764]
metricName: logP
obsValue: 4.00^[c]
--
compound: CCOC(=O)C(C)(CON=C(C)c1cccc(C)n1)CON=C(C)c1cccc(C)n1 (stereo not shown)
metricName: logP
obsValue: 5.00^[c]
--
compound: C#Cc1cc(C)nc(C(C)=NOCC(C)CON=C(C)c2cc(C#C)cc(C)n2)c1 (stereo not shown)
metricName: logP
obsValue: 6.61^[c]
--
compound: CC(=O)OCC#Cc1cc(C)nc(C(C)=NOCC(C)CON=C(C)c2cc(C#CCOC(C)=O)cc(C)n2)c1 (stereo not shown)
metricName: logP
obsValue: 6.31^[c]

* * *

Assay: logP determination by HPLC on a reversed-phase column (C 18), EEC Directive 79/831 Annex V.A8
Assay type: physicochemical
Settings: method marked [b] in Table 1
metricName: logP

compound: CC(=NOCC1(CON=C(C)c2cc(C)cc(C)n2)CC(c2ccccc2)=NO1)c1cc(C)cc(C)n1 (stereo not shown)
obsValue: 2.55^[b]

compound: CC(=NOCc1ccc(CON=C(C)c2cccc(C)n2)cc1)c1cccc(C)n1
obsValue: 4.27^[b]

compound: N/C(=N\OCc1cccc(CO/N=C(\N)c2nc(C3CC3)cc(C3CC3)n2)c1)c1nc(C2CC2)cc(C2CC2)n1
obsValue: 3.76^[b]

compound: CC(=NOc1ncnc(ON=C(C)c2cccc(C)n2)c1C)c1cccc(C)n1
obsValue: 2.34^[b]

* * *

Experiment: logP determination by HPLC on a reversed-phase column (C 18), EEC Directive 79/831 Annex V.A8
Assay type: physicochemical
Settings: value marked [b]
metricName: logP

molecule: CC(=NOCCCCCCON=C(c1ccccc1)c1ncccc1C)c1cccc(C)n1
metricName: logP
obsValue: 4.98^b]
//
molecule: CC(=NOC(C)CC(C)ON=C(C)c1ccc(C)c(C)n1)c1ccc(C)c(C)n1 (centres unmarked)
metricName: logP
obsValue: 3.4^[b]
//
molecule: COc1cccc(C(C)=NOCC(C)(C)CON=C(C)c2cccc(C)n2)c1
metricName: logP
obsValue: 5.31^[b]
//
molecule: CCC(CC)(CON=C(C)c1cccc(C)n1)CON=C(C)c1cccc(C)n1
metricName: logP
obsValue: 6.68^[b]
//
molecule: CCc1nc(C(C)=NOCC(C)CON=C(C)c2ccc(C)c(CC)n2)ccc1C (centres unmarked)
metricName: logP
obsValue: 6.48^[b]

* * *

Listed here are compounds together with their documented logP.
Assay: logP determination by HPLC on a reversed-phase column (C 18), EEC Directive 79/831 Annex V.A8
Assay type: physicochemical
Details: value marked [a]

compound: C=C(CON=C(c1cccc(C)n1)C1CC1)CON=C(c1cccc(C)n1)C1CC1 (mixture of isomers) [Compound 312]
logP: 3.10^[a]

compound: CC(=NOC1CCC(ON=C(C)c2cccc(C3CC3)n2)C1)c1cccc(C2CC2)n1 (mixture of isomers)
logP: 7.36^[a]

compound: COc1cc(C)nc(C(C)=NOCC(C)CON=C(C)c2cc(OC)cc(C)n2)c1 (stereo not shown)
logP: 1.31^[a]

compound: C=C(CON=C(C#N)c1cccc(C)n1)CON=C(C#N)c1ccc(C)c(C)n1
logP: 4.20^[a]

* * *

Assay: logP determination by HPLC on a reversed-phase column (C 18), EEC Directive 79/831 Annex V.A8
Type: physicochemical
Settings: value marked [b]

compound: CC(=NOCC(C)(C)CON=C(C)c1nc(C)c(C)s1)c1cccc(C)n1
logP: 5.36^[b]
//
compound: CC(=NOCC(C)(C)CON=C(c1ccccc1)c1ncccc1C)c1cccc(C)n1
logP: 4.51^[b]
//
compound: CC(=NOCC(C)CON=C(C)c1cc(Cl)cc(C)n1)c1cccc(C)n1 (stereo not drawn)
logP: 6.58^[b]
//
compound: C=C(CON=C(C)c1cccc(C)n1)CON=C(C)c1cccc(CC(C)C)n1
logP: 6.03^[b]
//
compound: CCCc1cccc(C(C)=NOCC(C)(C)CON=C(C)c2cccc(C)n2)n1
logP: 6.36^[b]
//
compound: CC(=NOCC1(CON=C(C)c2ccc(C)c(C)n2)CC1)c1cccc(C)n1
logP: 3.99^[b]
//
compound: COc1ccc(C(C)=NOCCCCON=C(C)c2cccc(C)n2)cc1OC
logP: 3.85^[b]
//
compound: CC(=NOCC(C)(C)CON=C(C)c1cccc(Cc2ccccc2)n1)c1cccc(Cc2ccccc2)n1
logP: 7.36^[b]
//
compound: C=C(CON=C(C)c1cnccn1)CON=C(C)c1cccc(C)n1
logP: 2.98^[b]

Taken from patent US20100022559A1.
